Test system: blackgrass (Alopecurus myosuroides)
Experiment: Test B pre-/postemergence
Format: in vivo
Conditions: Rate 62 g/ha, Postemergence
recordedEndpoint: Plant response rating, Blackgrass
Answer with the value's number alone.

Need Plant response rating, Blackgrass, item `Cc1cnc(-c2ccc(Cl)cc2F)nc1Cc1cccc(C#N)c1`
1

Let us now turn to `Cc1cnc(-c2ccc(C(F)(F)F)cc2)nc1Cc1cccc(C#N)c1`
1

Param item: COC(=O)C(c1cccc(C(F)(F)F)c1)c1nc(-c2ccc(C(F)(F)F)cc2)ncc1C (racemic)
2

Please do the same for `Cc1cnc(-n2ccc(C(F)(F)F)n2)nc1Cc1cccc(OC(F)(F)F)c1` as well.
6

---

Below, each entry is listed alongside its reported Plant response rating, Wild oats.
Tested on: wild oat (Avena fatua)
Assay: Test B pre-/postemergence
Assay type: in vivo
Conditions: Rate 250 g/ha, Postemergence
Protocol: […] At the same time, these crop and weed species were also treated with postemergence applications of test chemicals formulated in the same manner. […] Treated plants and controls were maintained in a greenhouse for twelve to sixteen days, after which all species were compared to controls and visually evaluated. […]
Respond with the number and no other words.

> print(dat)
                                   compound                  system                  recordedendpoint  valuereported
1  COc1cnc(-n2ccc(C(F)(F)F)n2)nc1C(=O)c1cccc(C(F)(F)F)c1 [Compound 60]  wild oat (Avena fatua)  Plant response rating, Wild oats              2

What value of measured Plant response rating, Wild oats is listed for Cc1cnc(-n2ccc(C(F)(F)F)n2)nc1C(=O)c1cccc(OC(F)(F)F)c1 [Compound 66] ?
2

Entry to check: CCc1cnc(-c2ccc(C(F)(F)F)cc2)nc1Cc1cccc(C(F)(F)F)c1 [Compound 22]
8

Same for Cc1cnc(-n2cnc(C(F)(F)F)c2)nc1Cc1cccc(C(F)(F)F)c1 [Compound 44]
5

---

Plant response rating, Arrowleaf sida: recorded values
System: arrowleaf sida (Sida rhombifolia)
Assay: Test C
Assay type: in vivo
Settings: PREEMERGENCE, Rate 35 g/ha
Answer with a number only.

Look at this molecule and give its reported Plant response rating, Arrowleaf sida. `Cc1cnc(-c2ccc(C(F)(F)F)cc2)nc1Cn1ccc(C(F)(F)F)n1`
90

Now give it for Cc1cnc(-c2ccc(C(F)(F)F)cc2)nc1C(Cl)c1cccc(C(F)(F)F)c1 (racemic) too.
70

Same question for `Cc1cnc(-n2cnc(C(F)(F)F)n2)nc1Cc1cccc(C(F)(F)F)c1` please.
100

// repeat for `CCc1cnc(-n2ccc(C(F)(F)F)n2)nc1Cc1cccc(C(F)(F)F)c1` and report
100

---

Tested on: field bindweed (Convolvulus arvensis)
Experiment: Test C
Format: in vivo
Details: PREEMERGENCE, Rate 35 g/ha
Readings of Plant response rating, Field bindweed for the listed compounds
// return just the number, without any unit appended

See these solved cases before continuing.
> print(dat)
                                   compound                       recordedendpoint  valuereported
1  CCc1cnc(-n2ccc(C(F)(F)F)n2)nc1Cc1cccc(C(F)(F)F)c1 [Compound 46]  Plant response rating, Field bindweed             10
2  Cc1cnc(-n2ccc(C(F)(F)F)n2)nc1C(=O)c1cccc(OC(F)(F)F)c1 [Compound 66]  Plant response rating, Field bindweed             40
3  Cc1cnc(-c2ccc(C(F)(F)F)cc2)nc1Cc1cccc(OC(F)(F)F)c1 [Compound 15]  Plant response rating, Field bindweed             65

Quick one: Plant response rating, Field bindweed of Cc1cnc(-n2ccc(C(F)(F)F)n2)nc1Cn1ccc(C(F)(F)F)n1 [Compound 52] ?
100

---

Each record here notes measured Plant response rating, Bedstraw.
System: bedstraw (Galium aparine)
Experiment: Test B pre-/postemergence
Assay type: in vivo
Settings: Rate 250 g/ha, Postemergence (so in the source)
Form field (numeric): enter value without unit.

Reference set, count: 5
> print(dat)
                                   molecule                 recordedendpoint  valuereported
1  Cc1cnc(-c2ccc(Cl)cc2F)nc1Cc1cccc(C#N)c1 [Compound 35]  Plant response rating, Bedstraw              1
2  Cc1cnc(-c2ccc(Cl)c(Cl)c2)nc1Cc1cccc(C#N)c1 [Compound 38]  Plant response rating, Bedstraw              2
3  CCc1cnc(-n2ccc(C(F)(F)F)n2)nc1Cc1cccc(C(F)(F)F)c1 [Compound 46]  Plant response rating, Bedstraw             10
4  Cc1cnc(-c2ccccc2F)nc1Cc1cccc(C#N)c1 [Compound 37]  Plant response rating, Bedstraw              0
5  Cc1cnc(-c2ccc(C(F)(F)F)cc2)nc1Cc1cccc(C#N)c1 [Compound 32]  Plant response rating, Bedstraw             10

Would you mind telling me what Plant response rating, Bedstraw value was observed for Cc1cnc(-c2ccc(Cl)cc2F)nc1Cc1cccc(C(F)(F)F)c1 [Compound 29] ?
3

Same question, COc1cnc(-n2ccc(C(F)(F)F)n2)nc1Cc1cccc(C(F)(F)F)c1 [Compound 45] this time
0

Same thing, different molecule: Cc1cnc(-n2cnc(C(F)(F)F)c2)nc1Cc1cccc(C(F)(F)F)c1 [Compound 44]
10

---

Listed here are molecules together with their documented S. Flatsedge plant response rating.
System: smallflower flatsedge (Cyperus difformis)
Assay: Test B flood test
Assay type: in vivo
Design: key: 0 is no effect; 10 is complete control
Settings: Rate 62 g/ha, Postemergence (flood test)
Lab note: record just the number, no unit beside it.

Consider the reported S. Flatsedge plant response rating for these molecules:
> print(dat)
                                 testsmiles                                    system                    recordedendpoint  valuereported
1  CCc1cnc(-n2cnc(C(F)(F)F)c2)nc1C(=O)c1cccc(OC(F)(F)F)c1  smallflower flatsedge (Cyperus difformis)  S. Flatsedge plant response rating              0
2  Cc1cnc(-c2ccc(C(F)(F)F)cc2)nc1Cn1cc(Br)cn1  smallflower flatsedge (Cyperus difformis)  S. Flatsedge plant response rating              6
3  Cc1cnc(-n2ccc(C(F)(F)C(F)(F)F)n2)nc1C(=O)c1cccc(OC(F)(F)F)c1  smallflower flatsedge (Cyperus difformis)  S. Flatsedge plant response rating              3
4  O=C(c1cccc(C(F)(F)F)c1)c1ccnc(-n2ccc(C(F)(F)F)n2)n1  smallflower flatsedge (Cyperus difformis)  S. Flatsedge plant response rating              0
5  O=C(c1cccc(C(F)(F)F)c1)c1ccnc(-c2ccc(C(F)(F)F)cc2)n1  smallflower flatsedge (Cyperus difformis)  S. Flatsedge plant response rating              0

Note: attention shifts to another entry.
Could you tell me which S. Flatsedge plant response rating is on file for `Cc1cnc(-n2ccc(C(F)(F)C(F)(F)F)n2)nc1C(=O)c1cccc(C(F)(F)F)c1` ?
5

---

System: bamyardgrass (Echinochloa crus-galli)
Assay: Test B flood test
Assay type: in vivo
Settings: Rate 125 g/ha, Postemergence section (flood test species)
Protocol: At the same time, these crop and weed species were also treated with postemergence applications of test chemicals formulated in the same manner. Plants ranged in height from 2 to 18 cm (1- to 4-leaf stage) for postemergence treatments. […] Treated plants and controls were maintained in a greenhouse for twelve to sixteen days, after which all species were compared to controls and visually evaluated. […]
recordedEndpoint: Barnyardgrass plant response rating
Reply with the value as a number alone.

Examples with answers:
> print(dat)
                                 testsmiles  valuereported
1  Cc1cnc(-n2cnc(C(F)(F)F)c2)nc1C(=O)c1cccc(OC(F)(F)F)c1              3
2  Cc1cnc(-n2cnc(C(F)(F)F)n2)nc1C(=O)c1cccc(OC(F)(F)F)c1              3
3  Cc1cnc(-c2ccc(C(F)(F)F)cc2)nc1C(=O)c1cccc(OC(F)(F)F)c1              2
4  Cc1cnc(-c2ccc(C(F)(F)F)cc2)nc1C(=O)c1cccc(C(F)(F)F)c1              5

Item `COc1cnc(-n2ccc(C(F)(F)F)n2)nc1C(=O)c1cccc(C(F)(F)F)c1` has what recorded Barnyardgrass plant response rating?
1

---

Consider the following compounds and their measured Plant response rating, Wheat readings.
Test system: wheat (Triticum aestivum)
Assay: Test B pre-/postemergence
Assay type: in vivo
Parameters: key: 0 is no effect; 10 is complete control
Details: Rate 125 g/ha, Preemergence

Form field: reported Plant response rating, Wheat of `Cc1cnc(-c2ccc(Cl)cc2)nc1Cc1cccc(C(F)(F)F)c1`
0

Consider next the compound `Cc1cnc(-c2ccc(C(F)(F)F)cc2)nc1C(=O)c1cccc(C(F)(F)F)c1` in the same way.
4

Here is the next compound: `Cc1cnc(-n2ccc(C(F)(F)C(F)(F)F)n2)nc1C(=O)c1cccc(C(F)(F)F)c1`
1

Entry to check: `Cc1cnc(-n2cnc(C(F)(F)F)c2)nc1C(=O)c1cccc(C(F)(F)F)c1`
3

Further, for `CCc1cnc(-n2cnc(C(F)(F)F)c2)nc1Cc1cccc(OC(F)(F)F)c1` ?
4

Now give it for `Cc1cnc(-c2ccc(C(F)(F)F)cc2)nc1Cn1cc(Br)cn1` too.
0

Next compound: `COc1cnc(-n2ccc(C(F)(F)F)n2)nc1Cc1cccc(C(F)(F)F)c1`
0

Do the same for `O=C(c1cccc(C(F)(F)F)c1)c1ccnc(-c2ccc(F)cc2F)n1` please
0

Again, but for `O=C(c1cccc(C(F)(F)F)c1)c1ccnc(-c2ccc(C(F)(F)F)cc2)n1`
0

Repeat for the following compound: `O=C(c1cccc(C(F)(F)F)c1)c1ccnc(-n2ccc(C(F)(F)F)n2)n1`
0
